Tested on: Plasmodium berghei
protocolNotes: Screen against P. berghei liver stage (PbLuc), transformed with Luciferase, at 2uM
Format: functional, HepG2
experimentalParameters: tested at 2 uM
Among all 68,000 compounds or so, about 2,700 (4%) showed an effect of 50% or more. The sample holds strong results, similar compounds and a random draw of the others, so the mix is not that of the screen.
Overview of reported INHIBITION across a group of compounds:
Quick reminder: number only, in %, skip the unit.

| compound | measurementUnits | INHIBITION |
| --- | --- | --- |
| CCCn1nc2c(cc1=O)CN(Cc1cc(C)on1)CC2 | % | -1.79 |
| CCCn1nc2c(cc1=O)CN(Cc1cc(C)no1)CC2 | % | 62 |

stdin: Given "Cc1cc(CN2CCc3nn(C)c(=O)cc3C2)no1" , state its recorded INHIBITION.
stdout: 22.34

stdin: Given CCc1nc2c(NCC3COc4c(cccc4OC)C3)ncnc2o1 (configuration not stated) , state its recorded INHIBITION.
stdout: 1.39

====

Test system: Plasmodium berghei
protocolNotes: Screen against P. berghei liver stage (PbLuc), transformed with Luciferase, at 2uM
Assay type: functional, HepG2
experimentalParameters: tested at 2 uM
Out of some 68,000 compounds screened, about 2,700 (4%) showed an effect of 50% or more. This excerpt belongs to a sample that is enriched for strong results.
Could you mark each record Fulfilled if its INHIBITION falls strictly under 20%, and Not fulfilled if it equals or exceeds it?

Answered cases to consult:
| molecule | labelValue |
| --- | --- |
| CCN1CC(COC(=O)c2cc(C)nn2CC)CC1=O (stereo not drawn) | Fulfilled |
| Cc1ccc(N2CCC3(CN(Cc4cccs4)CCC3(F)F)C2)nn1 (stereo not drawn) | Fulfilled |

stdin: I'd appreciate it if you could check whether Cc1cc(NC(=O)CN2CCCC2c2c(C)nn(C)c2C)on1 (stereo not drawn) has INHIBITION smaller than 20%.
stdout: Not fulfilled

stdin: I'd appreciate it if you could check whether "c1ccc(-c2cccc(-c3ccn(CCN4CCCCC4)n3)c2)nc1" has INHIBITION smaller than 20%.
stdout: Not fulfilled

stdin: I'd appreciate it if you could check whether "c1cc(-c2cnccn2)cc(-c2ccn(CCN3CCCCC3)n2)c1" has INHIBITION smaller than 20%.
stdout: Fulfilled

stdin: I'd appreciate it if you could check whether CC(C)c1noc(C(C)N2CCN(Cc3cccs3)CC2)n1 (stereo not drawn) has INHIBITION smaller than 20%.
stdout: Not fulfilled

stdin: I'd appreciate it if you could check whether c1ccc(C2CCCN2Cc2nc(-c3cnccn3)no2)nc1 (stereo not drawn) has INHIBITION smaller than 20%.
stdout: Fulfilled

stdin: I'd appreciate it if you could check whether "OCCN1CC2(CCN(c3ccccc3)C2)C1" has INHIBITION smaller than 20%.
stdout: Fulfilled

stdin: I'd appreciate it if you could check whether CCC1CN(CC(=O)NCCOC)CCO1 (stereo not drawn) has INHIBITION smaller than 20%.
stdout: Not fulfilled

stdin: I'd appreciate it if you could check whether CCc1noc(CS(=O)(=O)C(C)c2nc(C3CC3)no2)n1 (stereo not drawn) has INHIBITION smaller than 20%.
stdout: Not fulfilled

====

Tested on: Plasmodium berghei
protocolNotes: Screen against P. berghei liver stage (PbLuc), transformed with Luciferase, at 2uM
Format: functional, HepG2
experimentalParameters: tested at 2 uM
Out of some 68,000 compounds screened, about 2,700 (4%) showed an effect of 50% or more. Many of the other results were omitted from the sample, so strong results are more common in it than they were.
Entries get a class label from measured INHIBITION. See ranges: low = under -10%, moderate = from -10% up to 30%, high = 30% and over

Answered cases to consult:
| molecule | assayedTarget | labelValue |
| --- | --- | --- |
| CCn1cc(CN2CCN(CC(O)c3ccc(C)cc3C)CC2)c(C)n1 (stereo unspecified) | Plasmodium berghei | high |
| CC(C)n1cnnc1CN(C)Cc1ccoc1 | Plasmodium berghei | high |
| COc1cccc(Cn2c(C)c(C)oc2=O)c1OC | Plasmodium berghei | moderate |
| Cc1ccc(C(=O)NS(=O)(=O)c2cccc3cnccc23)c(=O)[nH]1 | Plasmodium berghei | low |
| Cc1nc(C)c(C(=O)N2CCCc3c(F)ccc(F)c32)o1 | Plasmodium berghei | high |

stdin: # bin label for CCc1ccc(C(=O)Nc2ccc(CC3CC(=O)NC3=O)cc2)s1 (stereo unspecified)
stdout: moderate

stdin: # bin label for "Cc1nc(C)c(C(=O)N2CCCc3c(F)cccc32)o1"
stdout: high

stdin: # bin label for CC(C)(CN1CCC(Cc2ccc(CO)cc2)C1)N1CCOCC1 (stereo unspecified)
stdout: low

stdin: # bin label for "O=C(NCC1CC1)[C@H]1C[C@H]2OCC[C@H]2N(Cc2ccsc2)C1"
stdout: low

stdin: # bin label for "O=C(NC1CC1)C1CCN(c2nc3nc[nH]c(=O)c3s2)CC1"
stdout: moderate

stdin: # bin label for "Cc1c(-c2cc(C(=O)N3CCc4ncc(Cl)cc4C3)on2)cnn1C"
stdout: low
